Biological target: Human M4 (Homo sapiens, UniProt P08173)
Sequence (P08173 1-479): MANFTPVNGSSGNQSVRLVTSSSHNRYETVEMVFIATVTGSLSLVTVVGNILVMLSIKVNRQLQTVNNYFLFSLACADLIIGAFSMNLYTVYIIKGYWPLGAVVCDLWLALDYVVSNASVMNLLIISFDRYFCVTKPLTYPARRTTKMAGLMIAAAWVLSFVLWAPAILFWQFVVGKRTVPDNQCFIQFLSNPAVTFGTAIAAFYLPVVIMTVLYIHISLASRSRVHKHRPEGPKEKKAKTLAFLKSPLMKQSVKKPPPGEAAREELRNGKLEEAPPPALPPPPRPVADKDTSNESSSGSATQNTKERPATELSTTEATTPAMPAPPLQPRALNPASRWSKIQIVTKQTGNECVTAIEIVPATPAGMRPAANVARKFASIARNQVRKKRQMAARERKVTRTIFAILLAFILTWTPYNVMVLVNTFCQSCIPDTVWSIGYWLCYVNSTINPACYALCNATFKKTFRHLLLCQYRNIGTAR
Assay: mAChR M4 cell-based functional assay (calcium flux, antagonism of EC80 acetylcholine response)
Settings: M4/Gqi5/CHO-K1 cells; decrease of response elicited by EC80 acetylcholine
# pIC50 per record follows
pIC50 here is simply -log10 of the concentration when that concentration is written in mol/L.

Example entries and their recorded answers appear below.
>  <compound>
[2H]C([2H])(C1CCOCC1)N1C[C@H]2C[C@H](Nc3nnc(-c4cc(F)ccc4F)cc3C(F)F)C[C@H]2C1

>  <measure name>
pIC50

>  <numeric result>
8.77

$$$$
>  <compound>
[2H]C([2H])(C1CCOCC1)N1C[C@H]2C[C@H](Nc3nnc(-c4ccc5nn(C)cc5c4)cc3C)C[C@H]2C1

>  <measure name>
pIC50

>  <numeric result>
8.74

$$$$
>  <compound>
Cc1ccc(F)cc1-c1cc(-c2cc(F)ccc2C)c(N[C@H]2C[C@@H]3CN(CC4CCOCC4)C[C@@H]3C2)nn1

>  <measure name>
pIC50

>  <numeric result>
6.42

$$$$
>  <compound>
OC1(CN2C[C@H]3C[C@H](Nc4nnc(-c5cc(F)ccc5F)cc4C(F)F)C[C@H]3C2)CCOCC1

>  <measure name>
pIC50

>  <numeric result>
6.64

$$$$
>  <compound>
[2H]C([2H])(C1CCOCC1)N1C[C@H]2C[C@H](Nc3nnc(-c4cc(F)cc(F)c4F)cc3C3CC3(F)F)C[C@H]2C1 (stereo partly drawn)

>  <measure name>
pIC50

>  <numeric result>
8.19

$$$$

Task item: // lookup pIC50 for COc1cc(-c2ccc3nn(C)cc3c2)nnc1N[C@H]1C[C@@H]2CN(CC3CCOCC3)C[C@@H]2C1
Reply: 8.41
